Provide the reported viability increase of each item.
- measurement protocol: viability gain of MRP-1-high H69AR cells under doxorubicin, pilot screen, MRP-1 activator project, CellTiter-Glo, duplicate (AID 807);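 further: compound pretreatment 18-22 h then 72 h combined with doxorubicin; 0% = doxorubicin alone and 100% = vehicle without doxorubicin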
- condition notes: H69AR viability with doxorubicin, CellTiter-Glo luminescence; at 10 µM; stronger effect = higher value
Give bare numbers, in %.

Known results for molecules:
molecule	unit abbrev	observed result
CC(CN(C)Cc1ccccc1)OC(=O)C1COc2ccccc2O1 (configuration not stated)	%	0.39
CN(C)Cc1cc(C(C)(C)C)c(O)c(C(C)(C)C)c1	%	-2.61
Cc1sc(NC(=O)c2cccs2)c(C(N)=O)c1C	%	-6.53
CC1=CC(c2ccccc2)n2nc(NS(=O)(=O)c3ccc(C)cc3)nc2N1 (configuration not stated)	%	-1.29
C=CCNC(=O)c1cnc2n(c1=O)CCS2	%	2.16

Could you report viability increase for every entry in the following list?
1. O=C(CCS(=O)(=O)c1cccs1)N1CCCC1
2. CCC(=O)NCc1nc2ccccc2n1Cc1ccccc1F
3. CCOC(=O)N1CCC(C(=O)Nc2ccc(OCC)cc2)CC1
4. O=C(Nc1nc(-c2ccc3c(c2)OCO3)cs1)C1COc2ccccc2O1 (configuration not stated)

1: -1.26; 2: -0.04; 3: -1.27; 4: 1.56

Could you report viability increase for every entry in the following list?
1. CCn1c(=O)cc(N2CCC3(CC2)OCCO3)[nH]c1=O
2. O=C(Nc1nc2c(s1)CCCC2)c1ccc(Br)o1

[0.57, -4.11]

Input CCCc1cc(C(=O)Nc2sc3c(c2C(=O)OCC)CCCC3)no1 , output reported viability increase.
1.82

* * *

- measurement protocol: growth suppression of PTEN-deleted HCT116, pilot screen, cell-based, HCT116 clonal line, CellTiter-Glo (AID 824);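 further: 0% = 20 µM Hyamine control and 100% = vehicle cell control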
- condition notes: 60 h, at 10 µM, stronger effect = lower value
Inconclusive results are not listed.
Provide the reported viability of each item.
Numbers only, in %.

compound	unit abbrev	viability
O=C(CN1C(=O)COc2ccccc21)Nc1ccc(F)cc1	%	91.6
CCN(CC)C(=O)C1CCCN(C/C=C/c2ccccc2)C1 (stereo unspecified)	%	90.9
c1nnc2c3c4c(sc3ncn12)CCC4	%	107
O=C(CSc1ccc2nnc(-c3ccc(Cl)cc3)n2n1)N1CCN(c2ccccc2)CC1	%	85.5
O=C(c1ccccn1)N(CC1CCCO1)C1(C(=O)NC2CCCCC2)CCCCC1 (stereo unspecified)	%	92.3
COc1ccc(-c2cc(C(F)(F)F)n3nc(C(=O)N4CCCC4)cc3n2)cc1	%	84.7

Could you report viability for every entry in the following list?
1. O=C(Nc1ccc(Br)cc1F)C1CCCN(S(=O)(=O)c2cnc[nH]2)C1 (stereo unspecified)
2. O=C(CC(c1ccccc1)c1ccccc1)NCCO
3. CCN(C(=O)c1sc(N)c(C#N)c1C)C1CCCCC1
4. Cc1ccc(NC(=O)c2ccco2)cc1C
5. Cc1oc(-c2ccccc2F)nc1CS(=O)CC(=O)NCc1ccc2c(c1)OCO2 (stereo unspecified)

1: 98; 2: 96.1; 3: 91.6; 4: 90.5; 5: 89.3

* * *

- measurement protocol: RAM signaling pathway blockade in yeast – S. cerevisiae, Pdr1DBD-CYC8 efflux-inhibited sensitized strain, primary screen (AID 1298);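 further: 0% = DMSO untreated cells without growth and 100% = 10 µM 1-NA-PP1 full growth; higher means more yeast growth rescued from 5-FOA killing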
- condition notes: S. cerevisiae cbk1-as DSE1-URA3 strain, 5-FOA growth OD615, 2 d; at 50 µM; stronger effect = higher value
RAM network inhibition vs 0.5%: at or above is true (1), below is false (0).

compound	label class
CNc1oc(C)nc1S(=O)(=O)c1ccccc1	false (0)
COC(=O)c1ccc(C2c3c(oc4ccccc4c3=O)C(=O)N2CCCN2CCOCC2)cc1 (stereo unspecified)	false (0)
COCCn1c(SCC(N)=O)nc2c(c1=O)SC(C)C2 (stereo unspecified)	true (1)
Cn1nc(-c2ccc(Cl)cc2)c2cc(C(=O)NCc3ccco3)sc21	true (1)
Clc1ccc(C=NC23CN4CN(CN(C4)C2)C3)cc1	false (0)

Entry CC1(C)CC(=O)C2=C(C1)Nc1ccccc1NC2c1cccnc1 (stereo unspecified) : is its RAM network inhibition no less than 0.5%?
false (0)

Entry Cc1nnc(NC(=O)CSc2nnc(Cc3cccn3C)n2-c2ccccc2)s1 : is its RAM network inhibition no less than 0.5%?
true (1)

Data origin: PubChem BioAssay
